The origin of these recorded values is patent US10160705B2.

- Test system: renal progenitor cells
- assaySummary: In situ hybridization for lhx1a expression in 10-somite embryos (renal progenitor cell expansion)
- Format: in vivo
- conditionDescription: Danio rerio, percent of embryos with expanded kidney field; 800 nM; read-out: Expansion of Cells (including repeats* and recounts**) 800 nM
measureName: responders at 0.8 µM

> print(dat)
               compoundstructurestring         targetundertest  experimentalvalue
1               O=C(CCCCCCSc1ccccc1)NO  renal progenitor cells                 0%
2               COC(=O)CCCSc1ccc(C)cc1  renal progenitor cells                49%
3  O=C(CCCCCS(=O)(=O)c1ccc2ccccc2c1)NO  renal progenitor cells                 0%
4          COC(=O)CCCCCSc1ccc2ccccc2c1  renal progenitor cells                11%

* * *

- Tested on: renal progenitor cells
- assaySummary: In situ hybridization for lhx1a expression in 10-somite embryos (renal progenitor cell expansion)
- Format: in vivo
- conditionDescription: Danio rerio, 1.5 μM from 2 hpf, 10-somite embryos; read-out: lhx1a expansion, percent of treated embryos
- Description: PTBA was synthesized as described below. Hydroxyurea and aphidicolin were obtained from Sigma-Aldrich. […] Testing of the compounds is on-going, but for those tested, Table 6 provides first pass EC50s based upon colormetric in situ hybridizations for the Lhx1a mRNA expression levels. After the procedure is run, in situ hybridization is done for the lhx1 mRNA expression and the number of embryos that show an expanded kidney field is manually counted to establish the percent of embryos showing expansion. […]
Items are presented alongside their recorded responders at 1.5 µM.
measureName: responders at 1.5 µM (%)

> print(dat)
                                    compound  experimentalvalue
 1       COC(=O)CCCSc1ccc(C)cc1 [UPHD-00026]                100
 2  O=C(O)CCCSc1ccccc1 [UPHD-00020, 4-(phenylthio)butanoic acid (PTBA)]                 83
 3  CCC(C)OC(=O)CCCSc1ccccc1 (stereo not shown) [VNK-I-154]                 89
 4      O=C(CCCSc1ccc(Cl)cc1)NO [UPHD-00027]                 97
 5          COC(=O)CCCSc1ccccc1 [UPHD-00025]                 89
 6  O=C(CCCSc1ccccc1)NO [UPHD-00023, N-hydroxy- 4(phenyl- sulfanyl)butanamide]                 92
 7       O=C(CCCSc1ccc(F)cc1)NO [UPHD-00029]                100
 8       Cc1ccc(SCCCC(=O)NO)cc1 [UPHD-00028]                 97
 9      COC(=O)CCCSc1ccc(Cl)cc1 [UPHD-00021]                 72
10      COC(=O)CCCSc1ccc(OC)cc1 [UPHD-00022]                 91
11       O=C(CCCSc1ccc(Br)cc1)NO [VNK-I-292]                 47
12  CCCOC(=O)CCCSc1ccccc1 [UPHD-00024, propyl 4-(phenylsulfanyl)butanoate]                 89
13       COC(=O)CCCSc1ccc(F)cc1 [UPHD-00030]                100
